This section presents molecules with their documented Km values.
Tested on: F. hepatica cathepsin L2
Assay: Enzyme kinetic studies, cathepsin L2
Type: biochemical, Fasciola hepatica
Conditions: 0.1M glycine pH 7.0, 37° C.
Residues, ends and D or L forms follow the SMILES beside them. *: point of attachment. AMC = Cc1cc(=O)oc2cc(N*)ccc12; Tos = Cc1ccc(S(=O)(=O)*)cc1; Cbz = O=C(OCc1ccccc1)*; Boc = CC(C)(C)OC(=O)*

Molecule	Km / µM
Cc1cc(=O)oc2cc(NC(=O)[C@H](CCCCN)NC(=O)[C@H](CC(C)C)NC(=O)[C@@H](NC(=O)OC(C)(C)C)C(C)C)ccc12 [Boc-Val-Leu-Lys-AMC] (Boc-Val-Leu-Lys-{AMC})	7.34
Cc1ccc(S(=O)(=O)NCC(=O)N2CCC[C@H]2C(=O)N[C@@H](CCCNC(=N)N)C(=O)Nc2ccc3c(C)cc(=O)oc3c2)cc1 [Tos-Gly-Pro-Arg-AMC] (Tos-Gly-Pro-Arg-{AMC})	17.1
Cc1cc(=O)oc2cc(NC(=O)[C@H](CCCNC(=N)N)NC(=O)[C@H](Cc3ccccc3)NC(=O)OCc3ccccc3)ccc12 [Z-Phe-Arg-AMC] (Cbz-Phe-Arg-{AMC})	3.76
